// data source = the supplement of paper PMC9262897

tested on: E. coli TESEC Mtb Alr; experiment: growth (OD600 after 10 h); higher = more growth (less inhibition); details: arabinose 10000000 nM; compound 0.1 mM; raw OD600 reference: median of DMSO wells […], cell-free background 0.052
PARAMETER: growth
No unit in the answer, please; the number alone is enough.

# value of growth, E. coli TESEC Mtb Alr, item CN1CCN(c2c(F)cc3c(=O)c(C(=O)O)cn(CCF)c3c2F)CC1 = 0.0522

Here NC1CCN(c2c(F)cc3c(=O)c(C(=O)O)cn(C4CC4)c3c2Cl)C1 (stereo not drawn) was tested on E. coli TESEC Mtb Alr, and its growth came to 0.0504

Lab note: compound CC1=C(C(=O)O)N2C(=O)[C@@H](NC(=O)[C@H](N)c3ccc(O)cc3)[C@H]2SC1 tested on E. coli TESEC Mtb Alr; recorded growth was 0.326

The recorded growth with E. coli TESEC Mtb Alr for CC1CCc2cc(F)cc3c(=O)c(C(=O)O)cn1c23 (stereo not drawn) was 0.051

Response field growth (E. coli TESEC Mtb Alr) for item Cc1cc2cc3c(C)cc(=O)oc3c(C)c2o1 : 0.324

# growth measured on E. coli TESEC Mtb Alr for item C[C@H]1O[C@H](O[C@H]2[C@H](O)[C@@H](O)[C@@H](O[C@@H]([C@H](O)[C@@H](O)C=O)[C@H](O)CO)O[C@@H]2CO)[C@H](O)[C@@H](O)[C@@H]1N[C@H]1C=C(CO)[C@@H](O)[C@H](O)[C@H]1O = 0.379

Entry CCc1cccc(CC)c1NC(=O)CN(CC(=O)O)CC(=O)O under E. coli TESEC Mtb Alr had growth of 0.338

Lab note: compound COc1cc(C(=O)N2CCOCC2)cc(OC)c1OC tested on E. coli TESEC Mtb Alr; recorded growth was 0.363

---

Please go through the items and note down their growth.
system: E. coli TESEC Mtb Alr; assay: growth (OD600 after 10 h); higher = more growth (less inhibition); conditions: arabinose 1000 nM; compound 0.1 mM; raw OD600 reference: median of DMSO wells 0.294, cell-free background 0.041
Structures can show the parent of a compound that is named as a salt.
When you answer, write just the number.

Summary for this compound, CCCCC[C@H](O)/C=C/[C@H]1[C@H](O)CC(=O)[C@@H]1CCCCCCC(=O)O [Alprostadil] : growth is 0.284

The compound identified as C1CCC(C(CC2CCCCN2)C2CCCCC2)CC1 (stereo not given) [Perhexiline maleate] registered its growth at 0.0389

# growth of Nc1nc(=O)[nH]cc1F [Flucytosine] = 0.309

NNC(=O)c1ccncc1 [Isoniazid] has a reported growth of 0.288

The reported growth of the compound CC(C)[C@H]1CC[C@H](C(=O)N[C@H](Cc2ccccc2)C(=O)O)CC1 [Nateglinide] was 0.277

Quick note, growth for CN(C)CCC=C1c2ccccc2COc2ccccc21 [Doxepin hydrochloride] landed at 0.245

Reported growth for NNc1nncc2ccccc12 [Hydralazine hydrochloride] was 0.262

Form: compound = CCn1cc(C(=O)O)c(=O)c2cc(F)c(N3CCNCC3)cc21 [Norfloxacin] ; growth = 0.0427

# compound CNC(=C[N+](=O)[O-])NCCSCc1csc(CN(C)C)n1 [Nizatidine] ; its growth = 0.301

growth recorded for this compound, O=C1O[C@H]([C@@H](O)CO)C(O)=C1O [Ascorbic acid] , is 0.303
